Assay: Pharmacokinetics of oral linifanib in plasma and urine, non-compartmental analysis, phase 1 study
Assay type: in vivo, human (Japanese patients with solid tumors)
Conditions: human, plasma; across all dose levels (0.05–0.25 mg/kg oral); read-out: average T max
readout kind: Tmax

Read the entry Cc1ccc(F)c(NC(=O)Nc2ccc(-c3cccc4[nH]nc(N)c34)cc2)c1 and write its reported Tmax.
~2 h

* * *

Test: Pharmacokinetics of oral linifanib in plasma and urine, non-compartmental analysis, phase 1 study
Type: in vivo, human (Japanese patients with solid tumors)
Settings: human, plasma, 0.1 mg/kg; 0.10 mg/kg oral, single dose (C1D1), mean ± SD, N 6
readout kind: Cmax
# answer = value followed by unit

Give Cmax for the following molecule: Cc1ccc(F)c(NC(=O)Nc2ccc(-c3cccc4[nH]nc(N)c34)cc2)c1
152 ng/mL

* * *

Assay: Pharmacokinetics of oral linifanib in plasma and urine, non-compartmental analysis, phase 1 study
Assay type: in vivo, human (Japanese patients with solid tumors)
Conditions: human, plasma, oral, 0.2 mg/kg; 0.20 mg/kg once daily, multiple dose (C1D15), mean ± SD, N 3; read-out: T max
readout kind: Tmax (h)
Respond numerically; units are h and should not be typed.

Report Tmax for Cc1ccc(F)c(NC(=O)Nc2ccc(-c3cccc4[nH]nc(N)c34)cc2)c1 [linifanib]
2.33

* * *

Assay: Pharmacokinetics of oral linifanib in plasma and urine, non-compartmental analysis, phase 1 study
Format: in vivo, human (Japanese patients with solid tumors)
Details: human, plasma, 0.1 mg/kg; 0.10 mg/kg oral, single dose (C1D1), mean ± SD, N 6; read-out: T max
readout kind: Tmax (h)
Unit h implied. Number only.

Please look at this compound and report its Tmax: Cc1ccc(F)c(NC(=O)Nc2ccc(-c3cccc4[nH]nc(N)c34)cc2)c1
1.67

* * *

Experiment: Pharmacokinetics of oral linifanib in plasma and urine, non-compartmental analysis, phase 1 study
Assay type: in vivo, human (Japanese patients with solid tumors)
Conditions: human, plasma, 0.2 mg/kg; 0.20 mg/kg oral, single dose (C1D1), mean ± SD, N 3
readout kind: Cmax (ng/mL)
Report only the number, with the unit ng/mL understood.

Determine from records and report Cmax for Cc1ccc(F)c(NC(=O)Nc2ccc(-c3cccc4[nH]nc(N)c34)cc2)c1
305

* * *

Experiment: Pharmacokinetics of oral linifanib in plasma and urine, non-compartmental analysis, phase 1 study
Type: in vivo, human (Japanese patients with solid tumors)
Details: human, plasma, oral; 0.25 mg/kg once daily, multiple dose (C1D15), pre-dose concentration assumed equal to 24 h, mean ± SD, N 5; read-out: AUC24
readout kind: AUC (µg·h/mL)
Only the number, expressed in µg·h/mL, is required.

Determine its reported AUC: Cc1ccc(F)c(NC(=O)Nc2ccc(-c3cccc4[nH]nc(N)c34)cc2)c1
5.46

* * *

Experiment: Pharmacokinetics of oral linifanib in plasma and urine, non-compartmental analysis, phase 1 study
Type: in vivo, human (Japanese patients with solid tumors)
Details: human, plasma, oral; 0.25 mg/kg once daily, multiple dose (C1D15), mean ± SD, N 5
readout kind: Cmax
Hey, just the number and the unit after it is fine.

Kindly indicate its recorded Cmax. Item: Cc1ccc(F)c(NC(=O)Nc2ccc(-c3cccc4[nH]nc(N)c34)cc2)c1 [linifanib]
418 ng/mL

* * *

Assay: Pharmacokinetics of oral linifanib in plasma and urine, non-compartmental analysis, phase 1 study
Type: in vivo, human (Japanese patients with solid tumors)
Conditions: human, plasma; 0.25 mg/kg oral, single dose (C1D1), mean ± SD, N 6; read-out: T max
readout kind: Tmax (h)
Supply the numeric figure in h, leaving out any unit text.

Consider the molecule Cc1ccc(F)c(NC(=O)Nc2ccc(-c3cccc4[nH]nc(N)c34)cc2)c1 and give its recorded Tmax.
2.33
